target: aequorin (AEQ), cysteine-free mutant (Aequorea victoria, UniProt P07164, C152S/C159S/C187S); test: AEQ bioluminescence inhibition assay
Sequence (P07164 8-196 C152S/C159S/C187S): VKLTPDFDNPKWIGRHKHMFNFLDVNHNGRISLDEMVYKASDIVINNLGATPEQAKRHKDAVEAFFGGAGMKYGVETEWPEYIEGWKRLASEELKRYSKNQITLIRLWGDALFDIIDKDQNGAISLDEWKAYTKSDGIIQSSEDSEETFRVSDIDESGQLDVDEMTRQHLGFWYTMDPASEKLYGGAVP
pIC50: −log10 of the molar value.
The following compounds are listed with their measured pIC50 values.
MEASURED_PARAMETER: pIC50

Oc1c(Cl)cc(-c2ccc(Cl)c(Cl)c2)cc1Cl [4-hydroxy-3,3',4',5-tetrachlorobiphenyl] :: 3.89
Oc1cccc(-c2cc(Cl)ccc2Cl)c1O [2,3-dihydroxy-2',5'-dichlorobiphenyl] :: 2.86
Oc1ccc(-c2c(Cl)cc(Cl)cc2Cl)cc1 [4-hydroxy-2',4',6'-trichlorobiphenyl] :: 4.81
Oc1ccc(Cl)cc1-c1cc(Cl)c(Cl)c(Cl)c1Cl :: 7.01
